SYSTEM NAME: UniProt Q13976
Sequence (Q13976 whole entry): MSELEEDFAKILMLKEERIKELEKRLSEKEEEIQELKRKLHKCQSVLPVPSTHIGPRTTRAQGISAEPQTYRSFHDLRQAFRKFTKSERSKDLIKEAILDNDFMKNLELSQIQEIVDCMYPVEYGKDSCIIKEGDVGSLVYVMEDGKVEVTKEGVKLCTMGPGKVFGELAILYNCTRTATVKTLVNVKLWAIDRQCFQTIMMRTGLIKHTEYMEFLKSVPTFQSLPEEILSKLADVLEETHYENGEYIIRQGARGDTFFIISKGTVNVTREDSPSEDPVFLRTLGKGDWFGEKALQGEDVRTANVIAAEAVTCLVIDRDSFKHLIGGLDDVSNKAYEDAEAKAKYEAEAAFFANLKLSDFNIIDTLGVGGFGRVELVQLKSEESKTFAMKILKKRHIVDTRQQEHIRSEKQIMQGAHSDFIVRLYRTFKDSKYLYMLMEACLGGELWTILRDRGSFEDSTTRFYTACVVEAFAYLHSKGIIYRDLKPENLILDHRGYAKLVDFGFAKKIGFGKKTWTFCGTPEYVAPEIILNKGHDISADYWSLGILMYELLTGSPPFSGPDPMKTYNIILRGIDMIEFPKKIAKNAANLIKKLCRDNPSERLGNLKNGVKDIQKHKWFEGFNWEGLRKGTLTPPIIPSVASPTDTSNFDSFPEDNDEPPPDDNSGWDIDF
PROCEDURE SUMMARY: Inhibition of full length recombinant N-terminal GST-tagged human PKG expressed in baculovirus infected Sf9 insect cells using RSK as substrate preincubated for 15 mins followed by substrate addition and measured after 30 mins in presence of ATP by ADP Glo kinase assay
QUANTITY NAME: pIC50
Answers are plain numbers, as −log10 of the molar value.

INSERT INTO measurements (cpd_smiles, numeric_readout) VALUES
  ('COc1ccc(Cl)c([C@@H](C)NC(=O)N2CCN(c3ccncc3F)C[C@H]2C)c1', 4.94);

Need pIC50 for each of these compounds.
1. C[C@@H]1CN(c2ccncc2F)CCN1C(=O)N[C@H](C)c1cccc2nccn12
2. COc1cccc([C@@H](C)NC(=O)[C@H]2CC[C@H](c3ccncc3)C[C@H]2C)c1

1: 5.09; 2: 4.47

State recorded pIC50 for all listed compounds.
1. COc1cccc([C@@H](C)NC(=O)N2CC[C@@H](c3ccncc3)C[C@@H]2C)c1
2. COc1cccc([C@@H](C)NC(=O)N2CCN(c3ccncc3F)C[C@H]2C)c1F

1. 4.27
2. 4.29

Checklist item: pIC50 tested on UniProt Q13976, entry "COc1cccc([C@@H](C)NC(=O)N2CC[C@H](c3ccncc3)C[C@@H]2C)c1" , value?
4.31

---

SYSTEM NAME: Rho-associated protein kinase 2 (Homo sapiens)
Sequence (O75116 whole entry, the tested form may be a part): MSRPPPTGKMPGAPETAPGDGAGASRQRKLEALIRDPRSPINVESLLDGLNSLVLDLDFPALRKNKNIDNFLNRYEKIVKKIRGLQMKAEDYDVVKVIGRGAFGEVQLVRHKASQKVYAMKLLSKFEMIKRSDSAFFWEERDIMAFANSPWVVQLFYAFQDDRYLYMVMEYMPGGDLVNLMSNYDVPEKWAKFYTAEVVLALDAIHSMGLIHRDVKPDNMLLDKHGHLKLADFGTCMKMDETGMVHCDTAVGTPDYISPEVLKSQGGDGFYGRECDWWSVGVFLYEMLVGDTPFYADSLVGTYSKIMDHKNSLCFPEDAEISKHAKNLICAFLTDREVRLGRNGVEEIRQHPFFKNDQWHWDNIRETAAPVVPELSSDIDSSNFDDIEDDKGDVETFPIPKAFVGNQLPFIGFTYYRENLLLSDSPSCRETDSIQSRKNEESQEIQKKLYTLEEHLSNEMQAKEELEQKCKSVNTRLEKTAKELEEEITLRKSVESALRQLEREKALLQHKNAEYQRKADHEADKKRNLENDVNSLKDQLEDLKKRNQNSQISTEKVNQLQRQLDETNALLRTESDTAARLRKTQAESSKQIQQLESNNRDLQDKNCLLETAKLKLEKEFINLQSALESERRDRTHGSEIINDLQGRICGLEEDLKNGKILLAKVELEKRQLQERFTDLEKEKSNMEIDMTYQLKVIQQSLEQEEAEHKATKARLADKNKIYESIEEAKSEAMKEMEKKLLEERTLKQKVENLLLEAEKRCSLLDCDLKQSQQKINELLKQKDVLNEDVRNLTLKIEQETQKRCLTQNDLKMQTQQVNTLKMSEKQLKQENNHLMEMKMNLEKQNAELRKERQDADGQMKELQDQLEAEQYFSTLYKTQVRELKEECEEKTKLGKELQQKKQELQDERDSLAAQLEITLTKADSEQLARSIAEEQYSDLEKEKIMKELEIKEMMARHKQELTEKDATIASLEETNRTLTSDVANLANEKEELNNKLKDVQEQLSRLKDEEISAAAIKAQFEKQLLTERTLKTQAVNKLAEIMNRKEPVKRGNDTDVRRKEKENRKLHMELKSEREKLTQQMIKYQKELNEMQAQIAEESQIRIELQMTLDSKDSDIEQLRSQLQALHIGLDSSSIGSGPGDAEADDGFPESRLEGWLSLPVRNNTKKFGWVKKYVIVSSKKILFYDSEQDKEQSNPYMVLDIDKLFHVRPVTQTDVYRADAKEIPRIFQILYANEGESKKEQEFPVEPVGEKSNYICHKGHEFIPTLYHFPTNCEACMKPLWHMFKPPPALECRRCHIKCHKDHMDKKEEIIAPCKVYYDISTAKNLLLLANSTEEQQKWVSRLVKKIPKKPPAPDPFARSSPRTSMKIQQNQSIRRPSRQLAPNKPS
PROCEDURE SUMMARY: Inhibition of recombinant N-terminal GST-tagged human ROCK2 (5 to 554 residues) expressed in baculovirus infected Sf9 cells using S6K as substrate incubated for 30 mins in presence of ATP by ADP Glo kinase assay
QUANTITY NAME: IC50
Give the figure together with its unit, number first.

INSERT INTO measurements (cpd_smiles, result) VALUES
  ('COc1cccc([C@@H](C)NC(=O)N2CCN(c3ccncn3)C[C@H]2C)c1', '23 nM'),
  ('COc1cc([C@@H](C)NC(=O)N2CCN(c3ccncc3F)C[C@H]2C)ccc1F', '3 nM'),
  ('COc1cccc(CC(=O)Nc2cc(-c3ccnc(F)c3)cs2)c1', '15 nM'),
  ('COc1cccc([C@@H](C)NC(=O)N2CCN(c3ccncc3F)C[C@H]2C)c1', '3 nM');

For every item in the list below, what is its measured IC50?
1. COc1cccc([C@@H](C)NC(=O)N2CCC(c3ccncc3)CC2)c1
2. COc1cccc([C@@H](C)NC(=O)[C@H]2CC[C@H](c3ccncc3)C[C@H]2C)c1
3. COc1cccc([C@@H](C)NC(=O)c2ccc(-c3ccnc(F)c3)nc2)c1
4. COc1cccc([C@@H](C)NC(=O)N2CCN(c3ccnc(F)c3)C[C@H]2C)c1
5. COc1cccc([C@@H](C)NC(=O)N2CC[C@@H](c3ccncc3)C[C@@H]2C)c1
6. COc1cccc([C@@H](C)NC(=O)N2CCC(c3ccncc3F)CC2)c1

1. 74 nM
2. 45 nM
3. 26 nM
4. 6 nM
5. 1300 nM
6. 45 nM

Hi! Can you tell me IC50 for each of these compounds?
1. COc1ccc(F)c([C@@H](C)NC(=O)N2CCN(c3ccncc3F)C[C@H]2C)c1
2. COc1cccc([C@@H](C)NC(=O)N2CCN(c3ccncc3F)CC2)c1

["7 nM", "7 nM"]

---

PROCEDURE SUMMARY: Kinetic solubility of the compound in pH 7.4 PBS buffer incubated for 2 hrs using orbital shaker by LC-UV mass spectrometry
Format: physicochemical
CONDITION PARAMETERS: read-out: Kinetic_solubility
QUANTITY NAME: solubility kinetic at 2 h

INSERT INTO measurements (molecule, quantity_name, result) VALUES
  ('C[C@@H]1CN(c2ccncc2F)CCN1C(=O)N[C@H](C)c1cccn2nccc12', 'solubility kinetic at 2 h', '> 200 µM'),
  ('COc1cccc([C@@H](C)NC(=O)N2CCN(c3ccncc3F)C[C@H]2C)c1F', 'solubility kinetic at 2 h', '150 µM');

Please find the next molecule below.
Using the record for O=S(=O)(c1cccc2c(O)nccc12)N1CCCNCC1 [HYDROXYFASUDIL] , report its solubility kinetic at 2 h.
> 200 µM
